Assay: Human HepG2 cell viability assay in 384 well format
Type: toxicity, cell-based
Set-up: dose 125 nL, time 70.5 hour; concentration not given beside the values
Details: HepG2 cells, read-out: Inhibition
readout: cytotoxicity at 70.5 h (%)
Give bare numbers, in %.

compound="CC(CNC(=O)c1ccc(Cl)cc1F)N1CCN(C)CC1 (stereo unspecified)" readout="cytotoxicity at 70.5 h" value=13.3
compound=COc1ccc(CC(=O)NCCNS(=O)(=O)c2ccc(C)cc2)cc1 readout="cytotoxicity at 70.5 h" value=2.16
compound="O=C(CN1CCCC1Cn1cncn1)NCCc1c(F)cccc1F (stereo unspecified)" readout="cytotoxicity at 70.5 h" value=27.9
compound="COc1cccc2c(C)c(C(=O)N3CCNCC3C(N)=O)[nH]c12 (stereo unspecified)" readout="cytotoxicity at 70.5 h" value=-7.8
compound="CC(C)N1CCC2(CC1)CC(CC(N)=O)c1ccc(F)cc12 (stereo unspecified)" readout="cytotoxicity at 70.5 h" value=-5.38

Let us move to another entry and its cytotoxicity at 70.5 h.
Entry under test: `CS(=O)(=O)NCc1ncn2c1CN(Cc1cccs1)CCC2` . Its cytotoxicity at 70.5 h was -7.97

* * *

Assay: Human HepG2 cell viability assay in 384 well format
Format: toxicity, cell-based
Design: dose 125 nL, time 70.5 hour; concentration not given beside the values
Conditions: HepG2 cells, read-out: Inhibition
Please respond with reported cytotoxicity at 70.5 h for every item in the list.
Answers are plain numbers, in %.

Known results for compounds:
compound="CCN(CC)C(=O)CN(C)C1CCc2ccccc21 (stereo unspecified)" readout="cytotoxicity at 70.5 h" measurement_unit=% value=-3.62
compound=COc1ncc(C2(O)CCN(Cc3cccs3)CC2)c(OC)n1 readout="cytotoxicity at 70.5 h" measurement_unit=% value=-8.54
compound="Cn1cc(C(=O)CC2CCCN2C(=O)c2n[nH]c3ccccc23)cn1 (stereo unspecified)" readout="cytotoxicity at 70.5 h" measurement_unit=% value=8.22
compound=CCCc1cc(=O)[nH]c2nnc(SCC(C)=O)n12 readout="cytotoxicity at 70.5 h" measurement_unit=% value=-6.78
compound=COCc1noc(Cn2c(C)cc(C(F)(F)F)cc2=O)n1 readout="cytotoxicity at 70.5 h" measurement_unit=% value=-10.7

We next turn to a different compound, shown below.
So for `Cc1nc(C)c(C(=O)N2CCc3c(C)cccc32)o1` , the logged cytotoxicity at 70.5 h turned out to be -5.23

* * *

For each of the compounds below, state its cytotoxicity at 70.5 h.
Experiment: Human HepG2 cell viability assay in 384 well format
Assay type: toxicity, cell-based
Parameters: dose 125 nL, time 70.5 hour; concentration not given beside the values
Details: HepG2 cells, read-out: Inhibition
Give bare numbers, in %.

compound="Cc1cncc(C(=O)N2CCCC(C(=O)CCc3ccccc3)C2)c1 (centres undefined)" value=-5.02
compound="COC(=O)c1cc(C(=O)N2CCCCC2C)n(-c2ccccc2)n1 (centres undefined)" value=19.1
compound="CCCN1CCCCC1C(=O)Nc1ccc(-c2nnc[nH]2)cc1 (centres undefined)" value=-4.51
compound="CS(=O)(=O)N1CCCC12CCCN(c1nccs1)C2 (centres undefined)" value=-3.55
compound=CCN1CCC2(CCN(Cc3ccc(OC)cc3)CC2)C1=O value=-3.84
compound=C[C@@H]1CN(C2CCCCC2)CC[C@@]1(O)C1CCOCC1 value=-16
compound="CC(O)c1cnn(-c2ccccc2)c1 (centres undefined)" value=45.1
compound="CCc1nc(C2CCCN2C(=O)CCNS(C)(=O)=O)no1 (centres undefined)" value=0.333

Below is a list of compounds. For each, state its recorded cytotoxicity at 70.5 h.
1. c1cc(CCNc2ccc(CC3CCNC3)cn2)ccn1 (centres undefined)
2. Cc1ccc(NC2CCN(C(=O)c3ccsc3)CC2)nn1
3. O=C(NCc1ccc(F)cc1F)C(c1cccnc1)N1CCOCC1 (centres undefined)
4. Cc1nc(CN2CCC(N(C)Cc3nnc(C4CC4)n3C)C2)cs1 (centres undefined)

1. -4.08
2. -3.84
3. -0.235
4. -1.39

Each of the following entries comes with a recorded value; kindly state cytotoxicity at 70.5 h for each.
1. NC(=O)NCC(=O)N1C[C@H]2CC[C@@H]1CN(Cc1cscn1)C2
2. CC(=O)N1CCCC1C(=O)N1CCC(=Cc2cccc(F)c2)CC1 (centres undefined)
3. Cc1nn(C)c2ncnc(N3CCC(O)(CN4CCCC4)CC3)c12

1. 9.8
2. -14.8
3. -6.34

Return reported cytotoxicity at 70.5 h values for all items listed beneath this line.
1. CN(C)C(CNC(=O)NCCS(C)(=O)=O)c1ccco1 (centres undefined)
2. c1cncc(-c2ccc3c(c2)CCC32CCNCC2)c1

1: -4.23; 2: 17.8

I have 7 compounds here; please give me cytotoxicity at 70.5 h for each one.
1. CN1CCCc2c1nc1c(c2N)CCC1
2. CC(C)Cc1noc(CN(C)C2CCS(=O)(=O)C2)n1 (centres undefined)
3. COc1ccc(CN2CCC3(CC(=O)N(c4cncnc4)C3)C2)cc1 (centres undefined)
4. Cc1nc(NC(=O)C(C)N(C)Cc2cccc(C#N)c2)sc1C (centres undefined)
5. CCn1cnnc1CNC(=O)NC(c1cccs1)C1CCCC1 (centres undefined)
6. O=C(NCC1COCCO1)c1csc(Cc2ccccc2)n1 (centres undefined)
7. CCC(C)N(Cc1cnc(NC(C)C)nc1)Cc1ccsc1 (centres undefined)

1: -7.63; 2: -3.8; 3: -15.2; 4: 15.8; 5: 19.6; 6: -4.7; 7: -4.23

Items follow; give cytotoxicity at 70.5 h for each.
1. Cc1occc1C(=O)N1CCC2(CCCN(Cc3nccs3)C2)C1 (centres undefined)
2. CCS(=O)(=O)N(C)C1CCN(Cn2ccc(-c3ccc(F)cc3)n2)CC1

1: 1.62; 2: -13.9

Look up cytotoxicity at 70.5 h for the entries below, preserving their order.
1. Cc1cccnc1C(=O)N1C[C@@H]2CC[C@H](Oc3cccc(F)c3)[C@@H]2C1
2. CC(OCC(F)(F)F)C(=O)N1CCOCC1 (centres undefined)
3. CN(Cc1cccc(C(=O)Nc2ccnn2C)c1)CC1(C)COC1

1. -8.25
2. -99.6
3. 0.785

Provide the reported cytotoxicity at 70.5 h of each entry below, same order.
1. c1cncc(-c2noc(CNC3CCc4ncnn4C3)n2)c1 (centres undefined)
2. Cn1cccc1C(=O)NCc1ccnc(C2CCCOC2)n1 (centres undefined)
3. O=C(CC1CN(Cc2ccccc2)CCO1)NC1CCCC1 (centres undefined)
4. COC(=O)N1C[C@H]2CC[C@@H]1CN(Cc1cscn1)C2
5. N#Cc1ccccc1CN1CCC(c2nccn2CC2CCC2)CC1
6. CC(C)(C)NC(=O)COc1ccc(Oc2ccccn2)cc1
7. CCNC(=O)NC[C@H]1COCc2nc3cc(C)ccc3n21

[-5.95, -4.4, 11.6, 1.18, -1.95, -6.32, -3.17]

# return cytotoxicity at 70.5 h for each item in the list
1. O=C(CS(=O)(=O)Cc1ccc(F)cc1)NC1CCCCNC1=O (centres undefined)
2. CCc1nc(C(=O)N2CCN(C(=O)CCc3ccccc3)CC2)c[nH]1
3. COc1c(C2CCCN2CC(=O)N(C)c2nccs2)c(C)nn1C (centres undefined)
4. Cc1nnc(NCc2ccccc2Cl)c(C#N)c1C
5. CN(C)C(=O)c1csc(-c2ccoc2)n1

1. -6.01
2. -6.61
3. 0.589
4. -9.79
5. 27.9

* * *

Experiment: Human HepG2 cell viability assay in 384 well format
Assay type: toxicity, cell-based
Design: dose 125 nL, time 70.5 hour; concentration not given beside the values
Conditions: HepG2 cells, read-out: Inhibition
Hi there, I'd appreciate the recorded cytotoxicity at 70.5 h for every entry that follows.
Numbers only, in %.

Solved cases below.
molecule="CCCOCC(=O)N1CCCC(c2nnc(CN3CCCCC3)n2C)C1 (centres undefined)" measurement_unit=% value=9.63
molecule="COc1ccc(CN2CCC(c3cc(O)nc(C)n3)C2)c(F)c1 (centres undefined)" measurement_unit=% value=-1.14
molecule=CNC(=O)CN1CCCC12CCN(C(=O)c1ccc(F)cc1)CC2 measurement_unit=% value=-11
molecule=NC(=O)NC(=O)CCN1CCCN(c2nccs2)CC1 measurement_unit=% value=0.668
molecule="c1cnnc(N2CCCC(NCc3nc(-c4cccs4)no3)C2)c1 (centres undefined)" measurement_unit=% value=-6.61

I would be grateful if you could provide cytotoxicity at 70.5 h for each of the following entries.
1. COc1ccc(C(C)NC(=O)c2nn(C)c(C)c2Br)cc1 (centres undefined)
2. CC(C)c1nc(CNC(=O)c2ccc(C(C)N3CCCCC3)o2)cs1 (centres undefined)
3. Cc1c(C(=O)N[C@@H]2CC[C@@H](N3CCCC3)[C@@H]2O)[nH]c2ccc(F)cc12
4. CN1CCCC(N(C)S(=O)(=O)c2cccc3ncccc23)C1 (centres undefined)
5. N#Cc1ccc(CNCCc2cc(F)cc3c2OCOC3)cc1
6. CCN1CCN(C[C@H]2CC[C@@H](Cc3ccc4c(c3)OCO4)O2)CC1
7. CCc1nc(C2CCCN2CC(=O)Nc2cc(C)nn2C)no1 (centres undefined)

[-2.4, 11.9, 6.16, -1.85, 7.73, -5.47, -15.1]

Each of the following entries comes with a recorded value; kindly state cytotoxicity at 70.5 h for each.
1. CC(C)C(=O)N1CCC2(CN(CC3CCCC3)C2)C1
2. CCOCCN1CCN(c2ccc(C#N)cn2)CC1
3. Cc1nc(Nc2nccs2)cc(C2CCCN2)n1.Cl (centres undefined)
4. COc1cccc(F)c1C(=O)N1C[C@@H](CN(C)CCO)[C@@H](CO)C1
5. O=C(c1ccc(=O)[nH]n1)N1CCC(CN2CCOCC2)CC1
6. CC(=O)N1CCC(N2CCN(Cc3ccc(C)o3)C(CCO)C2)CC1 (centres undefined)
7. Cc1c2ncn(CC(=O)N(C)C)c(=O)c2nn1C

[-5.09, -9.92, 101, -8.49, -9.25, -6.87, -8.37]

Required: cytotoxicity at 70.5 h, one value per molecule below.
1. Cn1c(C2CC2)nc2cc(NC(=O)C3CCOC3)ccc21 (centres undefined)
2. CCc1noc(CNC2CCCN(Cc3noc(C4CC4)n3)C2)n1 (centres undefined)
3. CCc1ccc(NC(=O)Nc2c(O)oc3ccccc3c2=O)cc1
4. Cc1nc(Nc2nncs2)cc(C2CCCN2C)n1 (centres undefined)

-4.07
-5.98
-9.4
3.74

Sample CCOc1ccccc1C(=O)N(C)C(C)c1ccc(S(C)(=O)=O)cc1 (centres undefined) ; cytotoxicity at 70.5 h observed: -6.38
